# assayedTarget: MurA (EPT E coli) (Escherichia coli, UniProt P0A749)
# Construct: made in house
# Sequence (P0A749 whole entry): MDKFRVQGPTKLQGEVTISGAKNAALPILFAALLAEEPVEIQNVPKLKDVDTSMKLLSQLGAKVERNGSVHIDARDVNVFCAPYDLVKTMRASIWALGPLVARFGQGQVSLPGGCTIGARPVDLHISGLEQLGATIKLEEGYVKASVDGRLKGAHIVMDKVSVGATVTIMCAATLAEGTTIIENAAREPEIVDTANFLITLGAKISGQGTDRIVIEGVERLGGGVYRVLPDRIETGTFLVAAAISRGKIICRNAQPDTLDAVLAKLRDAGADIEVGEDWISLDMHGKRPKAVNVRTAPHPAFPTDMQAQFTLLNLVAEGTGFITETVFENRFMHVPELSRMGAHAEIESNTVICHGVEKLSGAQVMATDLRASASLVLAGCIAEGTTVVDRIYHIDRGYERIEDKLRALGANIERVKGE
# assay: Kinetic IC50 assay of MurA inhibition (Malachite Green), EPT E coli
# Assay type: biochemical
# conditionDescription: MurA enzyme, E coli; values given as ranges; read-out: IC50 EPT E coli
quantityName: IC50

Field request: IC50 | item: Cc1ccc(OC(=O)c2cccc3c2NC(C(=O)O)C2CC=CC32)cc1 (stereo not drawn) 1 to 10 µM

Field request: IC50 | item: CC(=O)Nc1ccc2c(c1)C1C=CCC1C(C(=O)O)N2 (stereo not drawn) > 200 µM

Field request: IC50 | item: O=C(O)C1Nc2c(OCc3ccccc3)cccc2C2C=CCC12 (stereo not drawn) > 200 µM

---

Reported pIC50 values, MurA (EPT Y pestis) (Yersinia pestis).
pIC50: −log10 of the molar value.

O=C(Oc1ccc(-c2ccccc2)cc1)c1cc(Cl)cc2c1NC(C(=O)O)C1CC=CC21 (centres unmarked) : 4.82 to 5.30
O=C(Oc1ccc(-c2ccc([N+](=O)[O-])cc2)cc1)c1cccc2c1NC(C(=O)O)C1CC=CC21 (centres unmarked) : 4.70 to 5.00

Please tell me: pIC50 of O=C(Oc1ccc(-c2ccccc2)cc1Cl)c1cccc2c1NC(C(=O)O)C1CC=CC21 (centres unmarked) , system MurA (EPT Y pestis) (Yersinia pestis)? 4.82 to 5.30

Please tell me: pIC50 of O=C(Oc1ccc(-c2ccccc2)cc1[N+](=O)[O-])c1cccc2c1NC(C(=O)O)C1CC=CC21 (centres unmarked) , system MurA (EPT Y pestis) (Yersinia pestis)? 4.70 to 5.00

Please tell me: pIC50 of O=C(O)C1Nc2ccc(F)cc2C2C=CCC12 (centres unmarked) , system MurA (EPT Y pestis) (Yersinia pestis)? 4.40 to 4.70

Please tell me: pIC50 of O=C(Oc1ccc(Oc2ccccc2)cc1)c1cccc2c1NC(C(=O)O)C1CC=CC21 (centres unmarked) , system MurA (EPT Y pestis) (Yersinia pestis)? 4.52 to 5.00

Please tell me: pIC50 of N#Cc1ccc(-c2ccc(OC(=O)c3cccc4c3NC(C(=O)O)C3CC=CC43)cc2)cc1 (centres unmarked) , system MurA (EPT Y pestis) (Yersinia pestis)? 4.52 to 4.70

Please tell me: pIC50 of CC(=O)Nc1ccc2c(c1)C1C=CCC1C(C(=O)O)N2 (centres unmarked) , system MurA (EPT Y pestis) (Yersinia pestis)? 4.00 to 4.30

---

# assayedTarget: MurA (EPT E coli) (Escherichia coli, UniProt P0A749)
# Construct: made in house
# assay: Kinetic IC50 assay of MurA inhibition (Malachite Green), EPT E coli
# Type: biochemical
# conditionDescription: MurA enzyme, E coli; values given as ranges; read-out: IC50 EPT E coli
The entries below come with measured IC50 values attached.

O=C(O)C1Nc2c(COc3ccccc3)cccc2C2C=CCC12 (stereo not drawn) [Compound 25] : > 200 µM

Field request: IC50 | item: CC(C)(C)c1ccc(OCc2cccc3c2NC(C(=O)O)C2CC=CC32)cc1 (stereo not drawn) [Compound 26] > 200 µM

Field request: IC50 | item: O=C(O)C1Nc2ccc(F)cc2C2C=CCC12 (stereo not drawn) [Compound 1] 5 to 20 µM
